Tested on: SNB-75
protocol: Cytotoxicity against human SNB75 cells assessed as cellular growth at 10 uM by SRB assay
Type: functional
measured.property: Activity

INSERT INTO results (smiles_input, reading) VALUES
  ('Clc1ccc(-c2nc(-c3cccs3)no2)c(Cl)c1', '63.47%'),
  ('Cc1ccc(C(=O)/C=C2/Nc3ccc(C)cc3OC2=O)cc1', '72.48%'),
  ('O=C(Nc1nc2ccc(Cl)cc2s1)c1ccc(Cl)cc1', '100.74%'),
  ('Clc1ccc(-c2nc(-c3cccs3)no2)cc1', '81.53%'),
  ('Cc1c(OCC(=O)c2ccccc2)ccc2c1oc(=O)c1ccccc12', '122.93%'),
  ('Cc1ccc2c(c1)N/C(=C/C(=O)c1ccc(Cl)cc1)C(=O)O2', '86.32%'),
  ('Clc1ccccc1Nc1nnc(-c2ccncc2)s1', '105.58%'),
  ('Nc1c(C(=O)Nc2ccccc2F)sc2nc3c(cc12)C(=O)CCC3', '13.66%'),
  ('CC1(C)CCc2cc(-c3ccn(S(=O)(=O)c4cccc(C(F)(F)F)c4)n3)ccc2O1', '102.76%'),
  ('Cc1cc(C)c(NC(=O)c2sc3nc4c(cc3c2N)C(=O)CC(C)(C)C4)c(C)c1', '105.78%'),
  ('Nc1c(C(=O)Nc2cccc(Cl)c2)sc2nc3c(cc12)C(=O)CCC3', '25.91%');
